- System: NCI-H2122
- experimental-details: combination cScore with sotorasib (Bliss gap around IC50) (%PoC); higher = stronger additive effect

{"compound": "Cc1nc(Nc2ncc(C(=O)Nc3c(C)cccc3Cl)s2)cc(N2CCN(CCO)CC2)n1 [Dasatinib] + C=CC(=O)N1CCN(c2nc(=O)n(-c3c(C)ccnc3C(C)C)c3nc(-c4c(O)cccc4F)c(F)cc23)[C@@H](C)C1 [sotorasib]", "combination cScore with sotorasib": 30.8}
{"compound": "COc1cc2/c(=N/c3ccc(Br)cc3F)nc[nH]c2cc1OCC1CCN(C)CC1 [Vandetanib] + C=CC(=O)N1CCN(c2nc(=O)n(-c3c(C)ccnc3C(C)C)c3nc(-c4c(O)cccc4F)c(F)cc23)[C@@H](C)C1 [sotorasib]", "combination cScore with sotorasib": 28.4}
{"compound": "O=c1cc(-c2cccc3c2Sc2ccccc2S3)oc(N2CCOCC2)c1 + C=CC(=O)N1CCN(c2nc(=O)n(-c3c(C)ccnc3C(C)C)c3nc(-c4c(O)cccc4F)c(F)cc23)[C@@H](C)C1 [sotorasib]", "combination cScore with sotorasib": 11.2}
{"compound": "O=C(c1c(F)ccc(NS(=O)(=O)N2CC[C@@H](F)C2)c1F)c1c[nH]c2ncc(-c3cnc(C4CC4)nc3)cc12 [PLX8394] + C=CC(=O)N1CCN(c2nc(=O)n(-c3c(C)ccnc3C(C)C)c3nc(-c4c(O)cccc4F)c(F)cc23)[C@@H](C)C1 [sotorasib]", "combination cScore with sotorasib": 24.2}

====

- Test system: SW837
- experimental-details: combination cScore with adagrasib (Bliss gap around IC50) (%PoC); higher = stronger additive effect

{"compound": "O=C(O)C(=O)O.[NH-][C@@H]1CCCC[C@H]1[NH-].[Pt+2] [Oxaliplatin] + C=C(F)C(=O)N1CCN(c2nc(OC[C@@H]3CCCN3C)nc3c2CCN(c2cccc4cccc(Cl)c24)C3)C[C@@H]1CC#N", "combination cScore with adagrasib": -1.13}
{"compound": "O=c1cc(N2CCOCC2)oc2c(-c3cccc4c3sc3ccccc34)cccc12 [NU-7441] + C=C(F)C(=O)N1CCN(c2nc(OC[C@@H]3CCCN3C)nc3c2CCN(c2cccc4cccc(Cl)c24)C3)C[C@@H]1CC#N", "combination cScore with adagrasib": 11.6}
{"compound": "C[C@]12CC[C@@H]3c4ccc(O)cc4C[C@@H](CCCCCCCCC[S+]([O-])CCCC(F)(F)C(F)(F)F)[C@H]3[C@@H]1CC[C@@H]2O (stereo partly specified) [Fulvestrant] + C=C(F)C(=O)N1CCN(c2nc(OC[C@@H]3CCCN3C)nc3c2CCN(c2cccc4cccc(Cl)c24)C3)C[C@@H]1CC#N", "combination cScore with adagrasib": 2.82}
{"compound": "O=C(/C=C\\n1cnc(-c2cc(C(F)(F)F)cc(C(F)(F)F)c2)n1)NNc1cnccn1 [KPT-330] + C=C(F)C(=O)N1CCN(c2nc(OC[C@@H]3CCCN3C)nc3c2CCN(c2cccc4cccc(Cl)c24)C3)C[C@@H]1CC#N", "combination cScore with adagrasib": 3.48}
{"compound": "COc1cc(OC2CCN(C)CC2)ccc1Nc1ncc2c(n1)n(C1CCCC1)c(=O)n2C [AZ3146] + C=C(F)C(=O)N1CCN(c2nc(OC[C@@H]3CCCN3C)nc3c2CCN(c2cccc4cccc(Cl)c24)C3)C[C@@H]1CC#N", "combination cScore with adagrasib": 9.79}
{"compound": "CNC(=O)c1cc(Oc2ccc(NC(=O)Nc3ccc(Cl)c(C(F)(F)F)c3)cc2)ccn1 [Sorafenib] + C=C(F)C(=O)N1CCN(c2nc(OC[C@@H]3CCCN3C)nc3c2CCN(c2cccc4cccc(Cl)c24)C3)C[C@@H]1CC#N", "combination cScore with adagrasib": -4.84}
{"compound": "NC(=O)Nc1cc(-c2cccc(F)c2)sc1C(=O)N[C@H]1CCCNC1 [AZD-7762] + C=C(F)C(=O)N1CCN(c2nc(OC[C@@H]3CCCN3C)nc3c2CCN(c2cccc4cccc(Cl)c24)C3)C[C@@H]1CC#N", "combination cScore with adagrasib": -2.72}
{"compound": "CN(C)c1ccccc1CN1CCCN(Cc2ccccc2N(C)C)C1c1ccncc1 [GANT61] + C=C(F)C(=O)N1CCN(c2nc(OC[C@@H]3CCCN3C)nc3c2CCN(c2cccc4cccc(Cl)c24)C3)C[C@@H]1CC#N", "combination cScore with adagrasib": -0.37}
{"compound": "CN(NC(=O)CC(=O)NN(C)C(=S)c1ccccc1)C(=S)c1ccccc1 [Elesclomol] + C=C(F)C(=O)N1CCN(c2nc(OC[C@@H]3CCCN3C)nc3c2CCN(c2cccc4cccc(Cl)c24)C3)C[C@@H]1CC#N", "combination cScore with adagrasib": 6.34}
{"compound": "O=C(O)c1nn(Cc2ccc(Cl)cc2Cl)c2ccccc12 [Lonidamine] + C=C(F)C(=O)N1CCN(c2nc(OC[C@@H]3CCCN3C)nc3c2CCN(c2cccc4cccc(Cl)c24)C3)C[C@@H]1CC#N", "combination cScore with adagrasib": -1.95}
{"compound": "CC(=O)Nc1cccc(-n2c(=O)n(C3CC3)c(=O)c3c(Nc4ccc(I)cc4F)n(C)c(=O)c(C)c32)c1 [Trametinib] + C=C(F)C(=O)N1CCN(c2nc(OC[C@@H]3CCCN3C)nc3c2CCN(c2cccc4cccc(Cl)c24)C3)C[C@@H]1CC#N", "combination cScore with adagrasib": 13.6}
{"compound": "O=[N+]([O-])c1ccc(NCCNc2ncc(-c3ncc[nH]3)c(-c3ccc(Cl)cc3Cl)n2)nc1 + C=C(F)C(=O)N1CCN(c2nc(OC[C@@H]3CCCN3C)nc3c2CCN(c2cccc4cccc(Cl)c24)C3)C[C@@H]1CC#N", "combination cScore with adagrasib": 5.65}
{"compound": "c1ccc(-c2nn3c(c2-c2ccnc4cc(OCCN5CCOCC5)ccc24)CCC3)nc1 + C=C(F)C(=O)N1CCN(c2nc(OC[C@@H]3CCCN3C)nc3c2CCN(c2cccc4cccc(Cl)c24)C3)C[C@@H]1CC#N", "combination cScore with adagrasib": 0.67}
{"compound": "CN1CC[C@H](c2c(O)cc(O)c3c(=O)cc(-c4ccccc4Cl)oc23)[C@H](O)C1 [Flavopiridol] + C=C(F)C(=O)N1CCN(c2nc(OC[C@@H]3CCCN3C)nc3c2CCN(c2cccc4cccc(Cl)c24)C3)C[C@@H]1CC#N", "combination cScore with adagrasib": 2.43}
{"compound": "O=C(/C=C/N1C[C@H]2C[C@@H]1CN2c1ccccn1)c1ccccc1O [PFI-3] + C=C(F)C(=O)N1CCN(c2nc(OC[C@@H]3CCCN3C)nc3c2CCN(c2cccc4cccc(Cl)c24)C3)C[C@@H]1CC#N", "combination cScore with adagrasib": -2.21}
{"compound": "COc1ncc(-c2nc3c(n2C(C)C)[C@H](c2ccc(Cl)cc2)N(c2cc(Cl)cn(C)c2=O)C3=O)c(OC)n1 [HDM-201] + C=C(F)C(=O)N1CCN(c2nc(OC[C@@H]3CCCN3C)nc3c2CCN(c2cccc4cccc(Cl)c24)C3)C[C@@H]1CC#N", "combination cScore with adagrasib": 3.06}
